Data provenance is PubChem BioAssay (NCI).

# growth values compiled below
Test system: SN12C renal
Experiment: NCI-60 one-dose screen, 48 h (100 = growth as untreated, 0 = no growth, -100 = all killed)
Conditions: 10 µM
This is part of a sample that, as a whole, favours compounds with a hit. Of some 83,000 tested, about 20% had one in any assay.

| compound | growth, % |
| --- | --- |
| CN(C)CC1(N)C(=O)NC(=O)NC1=O | 96.8 |
| ClCc1ccc2ccccc2n1 | 86 |
| Oc1c(Cl)cc(Cl)c2ccccc12.[Cu+2] | 99 |
| CCOP(=O)(OCC)/C(C#N)=C/c1ccc(Br)cc1 | 98.5 |
| C[C@@H]1C[C@@H]([C@H](O)CC2CC(=O)NC(=O)C2)C(=O)[C@@H](C)C1 | -0.0682 |
| COC(=O)C1C(O)C(C)C(O)C(C)/C=C\C=C(C)C(=O)Nc2c(C)c(OC(C)=O)c3c(c2O)C(=O)C(C)=C2OCOC(=C23)C(C)=CC(C)(O)C(O)C(C)C1O (stereo not drawn) | 94.9 |
| NNc1ccccc1 | 97.3 |
| [Cl][Sn]([c]1ccccc1)([c]1ccccc1)[c]1ccccc1 | -28.9 |
| [Cl][Hg][c]1ccc(Cl)s1 | 34.1 |
| O=S(=O)(F)c1ccc(Cl)cc1 | 105 |
| C[CH2][Hg][S]c1ccccc1C(=O)O | -60.6 |
| COc1cc(/C=C/[N+](=O)[O-])cc(OC)c1OC | 30.7 |
| COc1ccc(/C=C(\C)[N+](=O)[O-])cc1OC | 39.9 |
| COc1cc2c(c(OC)c1OC)-c1ccc(O)c(=O)cc1[C@@H](NC(C)=O)CC2 | 60 |
| CC[C@@H](C)[C@@H]1NC(=O)C(NC(=O)C(CC(C)C)N(C)C(=O)C2CCCN2C(=O)C(C)O)C(C)OC(=O)C(Cc2ccc(OC)cc2)N(C)C(=O)C2CCCN2C(=O)C(CC(C)C)NC(=O)C(C)C(=O)C(C(C)C)OC(=O)C[C@H]1O (stereo partly drawn) | -14.5 |
| [Cl][Hg][c]1ccc2ccccc2c1 | -67.1 |
| O=C(O)c1cc(Cc2ccc(O)c(C(=O)O)c2)ccc1O (tested in a mixture with another compound) | 87.1 |
| O=C1CCC(=O)N1SC(Cl)(Cl)Cl | 102 |
| C=C1C(=O)O[C@@H]2C[C@@H](C)[C@@H]3C=CC(=O)[C@@]3(C)[C@@H](O)[C@H]12 | 9.98 |
| COC(C(=O)C(O)C(C)O)C1Cc2cc3cc(OC4CC(OC(C)=O)C(OC5CC(O)C(OC)C(C)O5)C(C)O4)cc(O)c3c(O)c2C(=O)C1OC1CC(OC2CC(OC3CC(C)(O)C(OC(=O)C(C)C)C(C)O3)C(O)C(C)O2)C(O)C(C)O1 (stereo not drawn) | 5.41 |
| O=[N+]([O-])/C=C/c1ccc(Cl)cc1[N+](=O)[O-] | 63.2 |
| COc1cc(/C=C/[N+](=O)[O-])cc(Br)c1OC | 28.7 |
| COC1CC2C=C(C)/C=C/C=C/C(=O)NC(c3ccccc3)C/C=C/CCC(O)CC(=O)C2=C1O (stereo not drawn) | -84.9 |
| N#CCc1ccccc1 | 99.6 |
| Oc1c(I)cc(I)cc1I | 97.2 |
| O=C1C(=O)c2ccccc2-c2ccccc21 | -61.5 |
| Cc1cc(C)c(C[N+](C)(C)C)c(C)c1C | 0.359 |
| COc1ccccc1/C=C/[N+](=O)[O-] | 83.2 |
| NC(=O)c1cc([N+](=O)[O-])c(Cl)c([N+](=O)[O-])c1Cl | 18.8 |
| O=C(CBr)Nc1ccccc1 | 91 |
| CC/C(=C/c1ccc(OC)cc1OC)[N+](=O)[O-] | 15.9 |
| O=C(CCl)Nc1ccc(Cl)cc1 | 35.8 |
| CC[C@@]1(O)C[C@H](OC2CC(N(C)C)C(O)C(C)O2)c2c(cc3c(c2O)C(=O)c2c(O)ccc(O)c2C3=O)[C@H]1C(=O)OC (stereo partly drawn) | -42.7 |
| NC(=O)c1cc([N+](=O)[O-])c(Cl)c([N+](=O)[O-])c1 | 100 |
| COS(=O)(=O)c1ccccc1 | 112 |
| O=[N+]([O-])/C=C\c1ccc2c(c1)OCO2 | 94.2 |
| CC(Cc1ccc2c(c1)OCO2)NN (stereo not drawn) | 102 |
| CC(C)c1cc([N+](=O)[O-])cc([N+](=O)[O-])c1O | 103 |
| Cc1ccc(NC(=O)CBr)cc1 | 95.7 |
| C[C@]12CC[C@H]3[C@@H](CCC4=CC(=O)CC[C@@H]43)[C@@H]1CC[C@@H]2OC(=O)N(CCCl)N=O | 23.2 |
| CN(CCCl)c1ccc(/C=C/C2=[N+](C)c3ccccc3C2(C)C)cc1 | 1.3 |
| O=[N+]([O-])c1ccc(N2CCOCC2)c2c1no[n+]2[O-] | 16.8 |
| CC(=O)Nc1c2sscc-2n(C)c1=O | -98.5 |
